Assay: self-splicing fitness, log relative to wild type (ln ratio); higher = more splicing; Tetrahymena group I intron in knt gene, E. coli kanamycin selection, DiMSum; sequences stand for … in CUCUCU…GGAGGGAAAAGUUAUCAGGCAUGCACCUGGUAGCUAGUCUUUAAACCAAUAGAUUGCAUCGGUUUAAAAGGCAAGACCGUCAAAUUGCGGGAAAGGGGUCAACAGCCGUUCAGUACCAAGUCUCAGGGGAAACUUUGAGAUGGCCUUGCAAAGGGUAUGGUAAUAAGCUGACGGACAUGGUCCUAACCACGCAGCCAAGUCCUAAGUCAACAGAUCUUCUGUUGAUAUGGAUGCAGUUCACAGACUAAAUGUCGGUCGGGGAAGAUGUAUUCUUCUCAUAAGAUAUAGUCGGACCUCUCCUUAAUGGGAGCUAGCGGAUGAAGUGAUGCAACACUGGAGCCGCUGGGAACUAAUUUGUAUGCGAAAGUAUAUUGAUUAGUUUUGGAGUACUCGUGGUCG;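 also: selection with 25 µg/mL kanamycin versus none on LB agar overnight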
Conditions: 30 °C
Provide the reported self-splicing fitness (ln) of each item.
API doc: respond with a numeric literal and nothing else, no unit.

Given "AACAAGCAAUAUUACGUGGU" , state its recorded self-splicing fitness (ln).
-3.38

Repeat for the following sequence: "CAAUAGCAAUAUUACGUAGG"
-0.348

Do the same for "UCACAGCAAUAUUACGUCAA" please
-2.7

Repeat with "ACGUAGCAAUAUUACGGUCC"
-1.64

Same read-out for "AGACAGCAAUAUUACGCUGA" ?
-2.39

Now the sequence "CUCGAGCAAUAUUACGUUCC"
-3.4

# iterate: "UCGGAGCAAUAUUACGAGCA"
-2.39

What do you get for "AACAAGCAAUAUUACGAGGC" ?
-3.07

Also need "UCCUAGCAAUAUUACGGAUG" , thanks.
-4.25
